# TARGET_ENTITY: Recombinant purified HER2 receptor composed of the ectodomain of HER2 fused to the Fc of human IgG (human) (UniProt P04626)
# TEST_DESCRIPTION: SPR (Biacore 3000), HER2-Fc immobilized, peptide as analyte, 25 C
Positions of bridges follow the written chain, without caps; N, C: chain ends. No end group written: not given here.

BINDER: FCGDGFYACYMDV-OH (disulfide 2-9) [AHNP analogue 8, …-OH (cyclic)]
Kd (nM): 760
